Where do these numbers come from? They come from patent US20210318322A1.

Target: T1, cynomolgus VISTA extracellular domain (cynomolgus, UniProt A0A7N9IB00 33-194)
T1 construct: extracellular domain; also called cyno VISTA ECD; SB0361 (cyno (cynomolgus))
T1 sequence: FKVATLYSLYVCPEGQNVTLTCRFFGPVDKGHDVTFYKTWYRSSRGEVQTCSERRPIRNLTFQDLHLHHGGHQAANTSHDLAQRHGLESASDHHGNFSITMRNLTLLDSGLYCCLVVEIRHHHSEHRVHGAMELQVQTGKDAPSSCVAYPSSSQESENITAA
Assay: SPR ProteOn
Answer each item with its documented koff.
Please state the figure in s⁻¹; there is no need to write the unit.

Which koff value belongs to VSTB50 (antibody, human IgG1, kappa, V domains shown, also called S41; INX Code 41) VH: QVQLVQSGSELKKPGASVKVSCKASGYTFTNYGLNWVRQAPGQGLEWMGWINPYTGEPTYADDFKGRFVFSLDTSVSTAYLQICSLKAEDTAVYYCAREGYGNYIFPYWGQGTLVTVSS VL: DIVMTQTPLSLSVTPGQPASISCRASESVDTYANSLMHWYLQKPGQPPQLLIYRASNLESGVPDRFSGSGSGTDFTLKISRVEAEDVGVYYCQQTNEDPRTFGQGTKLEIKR ? 0.000219

Note, next up: VSTB95 (antibody, human IgG1, kappa, V domains shown, also called S16; INX Code 16) VH: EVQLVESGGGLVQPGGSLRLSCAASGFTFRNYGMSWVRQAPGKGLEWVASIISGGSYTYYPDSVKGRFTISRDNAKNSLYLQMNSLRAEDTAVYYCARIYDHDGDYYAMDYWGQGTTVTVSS VL: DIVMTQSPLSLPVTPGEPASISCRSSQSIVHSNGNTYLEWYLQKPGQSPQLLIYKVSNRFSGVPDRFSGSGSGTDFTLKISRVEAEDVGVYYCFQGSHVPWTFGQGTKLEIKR 8.53e-05

Note, next up: VSTB60 (antibody, human IgG1, kappa, V domains shown, also called S47; INX Code 47) VH: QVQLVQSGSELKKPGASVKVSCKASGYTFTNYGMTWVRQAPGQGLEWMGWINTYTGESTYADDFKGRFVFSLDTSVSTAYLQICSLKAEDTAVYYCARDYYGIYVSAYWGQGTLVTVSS VL: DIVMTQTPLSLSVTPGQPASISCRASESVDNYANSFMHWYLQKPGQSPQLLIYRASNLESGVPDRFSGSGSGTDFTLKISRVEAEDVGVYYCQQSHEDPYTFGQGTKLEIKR 0.000143

Note, next up: VSTB53 (antibody, human IgG1, kappa, V domains shown, also called S43; INX Code 43) VH: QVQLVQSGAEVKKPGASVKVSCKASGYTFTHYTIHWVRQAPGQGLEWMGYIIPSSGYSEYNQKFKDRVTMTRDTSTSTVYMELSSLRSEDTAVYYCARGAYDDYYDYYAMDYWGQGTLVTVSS VL: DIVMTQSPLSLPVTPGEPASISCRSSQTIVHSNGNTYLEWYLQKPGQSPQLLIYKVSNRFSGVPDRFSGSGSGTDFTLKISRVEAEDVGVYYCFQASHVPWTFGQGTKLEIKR 6.22e-05
